target: human FPR1 (Homo sapiens); assay: Ca2+ mobilization in HL-60 cells transfected with FPR1; assay type: cell-based; details: HL-60-FPR1 cells; percent of the response induced by 5 nM fMLF
readout.name: Ca2+ Mobilization Efficacy, FPR1 (%)

compound	assay.target	quantity.unit	Ca2+ Mobilization Efficacy, FPR1
Cc1cc(-c2ccccc2)nn(CC(=O)Nc2ccc(Br)cc2)c1=O	human FPR1 (Homo sapiens)	%	50

(a) C[C@@H]1CC(c2ccccc2)=NN(CC(=O)Nc2ccc(Br)cc2)C1=O [R-(+)-4a]
(b) CC1CC(c2ccccc2)=NN(CC(=O)Nc2ccc(Br)cc2)C1=O (racemic) [(±)-4a]
-- ask Please state the entry with greater Ca2+ Mobilization Efficacy, FPR1 among a and b . Please respond with the label that marks your chosen entry.
-- reply a

###

Biological target: human FPR1 (Homo sapiens, UniProt P21462)
Sequence (P21462 1-350): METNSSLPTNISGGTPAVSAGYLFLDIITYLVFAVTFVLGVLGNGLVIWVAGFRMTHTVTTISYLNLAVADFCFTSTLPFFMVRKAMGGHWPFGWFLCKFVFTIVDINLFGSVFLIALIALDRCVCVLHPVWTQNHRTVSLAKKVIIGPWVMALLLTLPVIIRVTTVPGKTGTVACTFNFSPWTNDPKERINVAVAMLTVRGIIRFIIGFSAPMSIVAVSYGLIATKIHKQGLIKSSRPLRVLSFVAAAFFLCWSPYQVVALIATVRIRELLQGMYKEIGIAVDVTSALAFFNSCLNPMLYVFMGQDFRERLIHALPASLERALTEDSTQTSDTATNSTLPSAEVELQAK
Test: Ca2+ mobilization in HL-60 cells transfected with FPR1
Conditions: read-out: Ca2+ Mobilization EC50, FPR1; HL-60-FPR1 cells; mean of three independent experiments; N.A. = no activity, limits efficacy > 20 % and EC50 < 50 μM
pEC50: −log10 of the molar value.
readout.name: pEC50

compound	pEC50
CC1CC(c2ccccc2)=NN(CC(=O)Nc2ccc(Br)cc2)C1=O (racemic) [(±)-4a]	4.63
C[C@H]1CC(c2ccccc2)=NN(CC(=O)Nc2ccc(Br)cc2)C1=O [S-(-)-4a]	4.71
C[C@@H]1CC(c2ccccc2)=NN(CC(=O)Nc2ccc(Br)cc2)C1=O [R-(+)-4a]	4.61

###

Target: UniProt:P25090
Sequence (P25090 1-351): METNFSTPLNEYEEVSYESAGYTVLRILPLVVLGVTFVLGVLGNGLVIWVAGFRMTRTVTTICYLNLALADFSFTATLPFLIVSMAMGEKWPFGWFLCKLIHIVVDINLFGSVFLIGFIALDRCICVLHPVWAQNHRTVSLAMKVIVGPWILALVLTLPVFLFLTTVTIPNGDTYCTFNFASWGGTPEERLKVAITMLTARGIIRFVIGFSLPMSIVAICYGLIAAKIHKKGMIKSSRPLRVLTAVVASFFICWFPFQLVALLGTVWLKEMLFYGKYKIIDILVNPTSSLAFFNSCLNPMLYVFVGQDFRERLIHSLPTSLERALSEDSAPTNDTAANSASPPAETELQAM
Assay: Ca2+ mobilization in HL-60 cells transfected with FPR2
Assay type: cell-based
Details: HL-60-FPR2 cells; percent of the response induced by 5 nM WKYMVm
readout.name: Ca2+ Mobilization Efficacy, FPR2 (%)

Solved entries (count: 2):
molecule	assay.target	endpoint.value
C[C@H]1CC(c2ccccc2)=NN(CC(=O)Nc2ccc(Br)cc2)C1=O [S-(-)-4a]	UniProt:P25090	95
CC1CC(c2ccccc2)=NN(CC(=O)Nc2ccc(Br)cc2)C1=O (racemic) [(±)-4a]	UniProt:P25090	65

(1) Cc1cc(-c2ccccc2)nn(CC(=O)Nc2ccc(Br)cc2)c1=O [8a]
(2) C[C@@H]1CC(c2ccccc2)=NN(CC(=O)Nc2ccc(Br)cc2)C1=O [R-(+)-4a]
-- ask Please state the entry with greater Ca2+ Mobilization Efficacy, FPR2 among 1 and 2 . Please respond with the label that marks your chosen entry.
-- reply 2
